Test system: NCI-H23
Experiment: NCI tumour cell line growth inhibition, 48 h
Activity calls are given as the source filed them. Rule as the data show it: active = GI50 up to about 1.1 µM and inactive = higher.

| molecule | targetSystem | GI50 |
| --- | --- | --- |
| COc1ccc(-c2cc(=O)c3cc(O)ccc3o2)c(OC)c1OC | NCI-H23 | 36.8 µM (inactive) |
| O=C1CC2(CCC(O)(c3ccccc3)C(C(=O)c3ccccc3)C2)C(=O)c2ccccc2N1 (stereo not drawn) | NCI-H23 | > 100 µM (inactive) |
| c1ccc(CCCCNCc2cc(CNCCCCc3ccccc3)cc(CNCCCCc3ccccc3)c2)cc1 | NCI-H23 | 1.28 µM (inactive) |

----------
Listing of entries alongside the reported GI50.
System: MOLT-4
Test: NCI tumour cell line growth inhibition, 48 h
Activity calls are given as the source filed them. Rule as the data show it: active = GI50 up to about 1.1 µM and inactive = higher.

| compound | targetSystem | GI50 |
| --- | --- | --- |
| CC(=O)OCC1OC(c2nc3ccccc3s2)=CC(OC(C)=O)C1OC(C)=O (stereo not drawn) | MOLT-4 | > 10 µM (inactive) |
| COc1c(OC)c(OC)c2c(=O)cc(-c3ccc(OC(C)C)cc3)oc2c1OC | MOLT-4 | 3.87 µM (inactive) |
| CCOC(=O)C1C(c2ccc(OC)cc2)c2c(nn(-c3ccccc3)c2O)CC1(O)OCC (stereo not drawn) | MOLT-4 | 2.45 µM (inactive) |

----------
System: NCI-H522
Assay: NCI tumour cell line growth inhibition, 48 h
The source made the active and inactive calls. Rule as the data show it: active = GI50 up to about 1.1 µM and inactive = higher.
Outcomes: 1 = active, -1 = inactive

| compound | qualitativeLabel |
| --- | --- |
| CN(C)c1ccccc1CC(c1c[nH]c2ccccc12)c1c[nH]c2ccccc12 | -1 |
| C/C(=N/NC(=S)N(C)CCc1ccccn1)c1cnccn1 | 1 |
| OCC1OC(n2cnc3c(Cl)nc(Nc4ccc(Cl)c(Cl)c4)nc32)CC1O (stereo not drawn) | -1 |

----------
System: SK-MEL-28
Experiment: NCI tumour cell line growth inhibition, 48 h
Active and inactive are the calls of the source. Rule as the data show it: active = GI50 up to about 1.1 µM and inactive = higher.
Outcomes: active, inactive

| compound | qualitativeLabel |
| --- | --- |
| COC[C@@H](/N=C/c1ccc(OC)cc1)C(C)C | inactive |
| O=S(=O)(/N=C(\NO)Nc1ccc(Cl)cc1)c1ccc(-c2ccccn2)s1 | inactive |
| Nc1ccc2c(c1)nc1n2C(c2c(F)cccc2F)SC1 (configuration not stated) | inactive |
| Cc1ccc(NC(=O)C(=O)CC(=O)c2ccccc2)cc1C | inactive |
| Nc1nncc2c1ccn2C1OC(CO)C(O)C1O (configuration not stated) | inactive |
| O=c1c2cccc3cccc(c4n1CCN=4)c32 | inactive |
| O=c1cc(CSc2c(-c3ccccc3)c(=O)n(-c3ccccc3)c(=S)n2-c2ccccc2)[nH]c(=O)[nH]1 | inactive |
| O=C(O)c1ccc2c(c1)CC1(C2)Cc2ccccc2C1=O (configuration not stated) | inactive |
| CC1=NN(C(=O)Cc2ccccc2)C(=O)/C1=C\c1ccc(O)cc1 | inactive |
| CC1=C(C(=O)Nc2cccc(C(F)(F)F)c2)C(c2ccccc2F)C(C(=O)Nc2cccc(C(F)(F)F)c2)=C(C)N1 | inactive |
| CC(C)(C)C(=C[S+]([O-])/N=C/c1ccccc1)C(C)(C)C (configuration not stated) | inactive |
| Cl/C(=C\C=N\c1ccc(I)cc1)c1ccc2ccccc2c1 | inactive |
| CCOC(=O)NC(C(=O)OCC)(N1CCN(c2cc3c(cc2F)c(=O)c(C(=O)O)cn3CC)CC1)C(F)(F)F (configuration not stated) | active |
| Nc1ccc(C(=O)NN2C(=O)C(Cl)C2c2cccc([N+](=O)[O-])c2)cc1 (configuration not stated) | inactive |
| N=C1CSC2=NC3=C(CCC/C3=C\c3ccccc3)C(c3ccccc3)N12 (configuration not stated) | inactive |
| O=c1ccc2c(Cl)cccc2o1 | inactive |
| O=[N+]([O-])c1cc(Br)cc2cc(Cl)cnc12 | inactive |
| CC(C)(C)N1C=[N+](C(C)(C)C)CC1 | inactive |
| CC1=NN(c2ccccc2)C(=O)C1=C1SCCCS1 | inactive |
| COc1ccc(CCN2CCOCC2)cc1 | inactive |
| CC1=C(/C=C/Cl)CC(Cl)C(C)(Cl)C1 (configuration not stated) | inactive |
| Nc1nc(Cl)nc2c1ncn2C1CCC(COP(=O)(O)OP(=O)(O)OP(=O)(O)O)O1 (configuration not stated) | inactive |
| COC(=O)c1cc(C#N)[nH]c1-c1ccc(C)s1 | inactive |
| CCc1cccc(CC)c1NC(=O)/C(Cl)=C(/Cl)C(=O)O | inactive |
| COc1cccc2c1C(=O)c1c(O)c3c(c(O)c1C2=O)C[C@@](O)(C(=O)CO)C[C@@H]3OC1CC(N2CCOCC2C#N)C(O)C(C)O1 (some centres not stated) | active |
| CN1CCN(C2=NCCO2)CC1 | inactive |
| Oc1ccc([I+]c2ccccc2)cc1O | inactive |
| O=c1[nH]c(=O)n(CCOc2ccccc2)cc1Nc1ccccc1 | inactive |
| Cc1ccnc2nc(-c3ccc4ccccc4c3)cc(O)c12 | inactive |
| COC(=O)C1CC2c3c(c4ccccc4n3C)CC(C1=O)N2C (configuration not stated) | inactive |
| N=NCC(=O)OC(COCc1ccccc1)COCc1ccccc1 | inactive |
| CNC(=O)OCc1nc(SC)n(C)c1CO | inactive |
| CN(C)CCNC(=O)c1cccc2c1Nc1ccccc1S2 | inactive |
| O=C1C=C(c2c(-c3ccccc3)[nH]c3ccccc23)C(=O)N1c1ccccc1 | inactive |
| Cc1c(C)c(C)n(C2OC(CO)C(O)C(O)C2O)c(=S)c1C#N (configuration not stated) | inactive |
| N#C/C(=C/Sc1ccccc1)C(=O)O | inactive |
| Cc1ccc(S(=O)(=O)NC(=O)NC(Cc2c[nH]c3ccccc23)C(=O)O)cc1 (configuration not stated) | inactive |
| Cc1c2cc[n+](C)cc2c(COC2OC(CO)C(O)C2O)c2c3ccccc3n(C)c12 (configuration not stated) | inactive |
| CC(C)c1cc(C(C)C)c(S(=O)(=O)N=[N+]=[N-])c(C(C)C)c1 | inactive |
| NNC(=S)N/N=C(\c1nc2ccc(Cl)cc2nc1O)C(O)c1ccc(Cl)cc1Cl (configuration not stated) | inactive |
| Cc1c(-c2cc3n(n2)C(c2cccs2)C(C#N)=C(c2ccccc2)N3)c(=O)n(-c2ccccc2)n1C (configuration not stated) | inactive |
| Cc1ncc2c(=O)c3c(oc2n1)c1ccccc1n3Cc1ccccc1 | inactive |

----------
Test system: T47D
Assay: NCI tumour cell line growth inhibition, 48 h
Calls of active or inactive are those of the source. Rule as the data show it: active = GI50 up to about 1.1 µM and inactive = higher.
Listing of entries alongside the reported GI50.
measuredAttribute: GI50

| molecule | result |
| --- | --- |
| COC(=O)c1cc(C#N)[nH]c1-c1ccc(C)s1 | 25.6 µM (inactive) |
| OCC1OC(n2cnc3c(Cl)nc(Nc4ccc(Cl)c(Cl)c4)nc32)CC1O (centres undefined) | 13.3 µM (inactive) |
| CCC(O)c1ccc(/N=C/c2ccccc2O)cc1 (centres undefined) | 8.97 µM (inactive) |
| CC1OC2OC3C(OCC(O)C3O)OC(=O)[C@]34CCC(C)(C)CC3C3=CCC5[C@@]6(C)C[C@H](O)[C@H](OC7OC(CO)C(O)C(O)C7OC7OCC(OC(=O)CC(C)(O)CC(=O)OC1C(OC1OC(CO)C(O)C(O)C1O)C2O)C(O)C7O)[C@@](C)(CO)C6CC[C@@]5(C)[C@]3(C)CC4 (some centres undefined) | 9.46 µM (inactive) |

----------
Tested on: T47D
Assay: NCI tumour cell line growth inhibition, 48 h
Calls of active or inactive are those of the source. Cut-off read from the data, not from the text of the source: active = GI50 up to about 1.1 µM and inactive = higher.
Outcomes: active, inactive

| molecule | targetSystem | qualitativeLabel |
| --- | --- | --- |
| CN(C)c1ccc(/C=c2/c3ccccc3n3c2cc(C24CC5CC(CC(C5)C2)C4)[n+]3C)cc1 | T47D | active |
| Cc1nnc2n1N=C(c1ccccc1)/C(=C/c1ccc(-c3ccc(Cl)cc3)o1)S2 | T47D | inactive |
| O=C(NNC(=O)c1csc(NC(=S)NC2CCCCC2)n1)c1ccccc1 | T47D | inactive |
| CC(=O)O[C@H]1CC[C@@]2(C)C(=CC[C@H]3[C@@H]4CC[C@H](c5cc(C(F)(F)F)n(C(C)=O)n5)[C@@]4(C)CC[C@@H]32)C1 | T47D | inactive |
| COc1cc2c(c(O)c1OC)C(=O)C(Cc1ccc(O)cc1)CO2 (configuration not stated) | T47D | inactive |
| CC1(C)CC2(C)CC1CC2NC(=O)CCN1CCOCC1 (configuration not stated) | T47D | inactive |
| Cc1ccc(S(=O)(=O)NC(=O)NC(Cc2c[nH]c3ccccc23)C(=O)O)cc1 (configuration not stated) | T47D | inactive |

----------
Listing of entries alongside the reported GI50.
Tested on: HOP-18
Test: NCI tumour cell line growth inhibition, 48 h
Calls of active or inactive are those of the source. No stated cut-off is given here; in the data, active = GI50 up to about 1.1 µM and inactive = higher.

| compound | GI50 |
| --- | --- |
| CN(C)CCNC(=O)c1cccc2cc([N+](=O)[O-])ccc12 | 0.697 µM (active) |
| N#CC(N)(C(=O)CCC(=O)Nc1cccc(Cl)c1)c1ccc(Cl)cc1 (stereo unspecified) | > 100 µM (inactive) |
| O=c1c2cccc3cccc(c4n1CCN=4)c32 | > 100 µM (inactive) |
| CC1=NN(c2ccccc2)C(=O)C1=C1SCCCS1 | 20.8 µM (inactive) |
| Cc1c2cc[n+](C)cc2c(COC2OC(CO)C(O)C2O)c2c3ccccc3n(C)c12 (stereo unspecified) | 27.5 µM (inactive) |
| N=C(N)c1csc([C@@H]2O[C@H](CO)[C@@H](O)[C@H]2O)n1 | 59.7 µM (inactive) |
| N#C/C(=C/Sc1ccccc1)C(=O)O | > 100 µM (inactive) |
| Clc1ccc(CN2COc3c(cc(Cl)c4cccnc34)C2)cc1 | 3.96 µM (inactive) |
| N#CC(NNC(=O)Cc1ccccc1)c1cccc(O)c1 (stereo unspecified) | > 100 µM (inactive) |
| c1ccc(-c2[nH]c(-c3ccccc3)c(-c3cnccn3)c2-c2cnccn2)cc1 | > 100 µM (inactive) |
| CCOC(=O)NC(=O)c1cn(C2CCCCC2)c(=O)n(C)c1=O | > 100 µM (inactive) |
| COC(=O)C1CC2c3c(c4ccccc4n3C)CC(C1=O)N2C (stereo unspecified) | 40 µM (inactive) |
| CCCN(CCC)CCc1cc(C(C)=O)n(S(=O)(=O)c2ccc(C)cc2)c1 | > 100 µM (inactive) |
| COC(=O)c1ccc(Cc2ccc(C(=O)OC)o2)o1 | 38.5 µM (inactive) |
| COc1ccc(S(=O)(=O)NC(C)C(=O)O)cc1 (stereo unspecified) | > 100 µM (inactive) |
| O=C(/C=C/c1ccccc1)/C=C/c1ccccc1O | 0.488 µM (active) |
